system under test: T1, GST-MUPP1 PDZ domain 3 (Homo sapiens (Human)), O75970
T1 chain: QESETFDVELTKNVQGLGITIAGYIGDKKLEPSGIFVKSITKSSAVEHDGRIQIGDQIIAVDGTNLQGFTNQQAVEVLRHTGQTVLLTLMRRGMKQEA
method notes: G' assay; further: key of the grades not given here
readout label: Classification

[[record]]
binder = "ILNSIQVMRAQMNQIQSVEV (modifications not checked) [ephrin B2]"
reading = "1 A450 class"

[[record]]
binder = "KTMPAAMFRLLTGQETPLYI (modifications not checked) [MINT-2]"
reading = "1 A450 class"

[[record]]
binder = "STDNLVRPFMDTLASHQLYI (modifications not checked) [presenilin-2]"
reading = "3 A450 class"

[[record]]
binder = "PVYIVQEMPPQSPANIYYKV (modifications not checked) [ephrin B1]"
reading = "1 A450 class"

